target: Axl (Homo sapiens, UniProt P30530); assay: Axl kinase inhibition IC50; format: biochemical; conditions: Table 1
Sequence (P30530 26-894): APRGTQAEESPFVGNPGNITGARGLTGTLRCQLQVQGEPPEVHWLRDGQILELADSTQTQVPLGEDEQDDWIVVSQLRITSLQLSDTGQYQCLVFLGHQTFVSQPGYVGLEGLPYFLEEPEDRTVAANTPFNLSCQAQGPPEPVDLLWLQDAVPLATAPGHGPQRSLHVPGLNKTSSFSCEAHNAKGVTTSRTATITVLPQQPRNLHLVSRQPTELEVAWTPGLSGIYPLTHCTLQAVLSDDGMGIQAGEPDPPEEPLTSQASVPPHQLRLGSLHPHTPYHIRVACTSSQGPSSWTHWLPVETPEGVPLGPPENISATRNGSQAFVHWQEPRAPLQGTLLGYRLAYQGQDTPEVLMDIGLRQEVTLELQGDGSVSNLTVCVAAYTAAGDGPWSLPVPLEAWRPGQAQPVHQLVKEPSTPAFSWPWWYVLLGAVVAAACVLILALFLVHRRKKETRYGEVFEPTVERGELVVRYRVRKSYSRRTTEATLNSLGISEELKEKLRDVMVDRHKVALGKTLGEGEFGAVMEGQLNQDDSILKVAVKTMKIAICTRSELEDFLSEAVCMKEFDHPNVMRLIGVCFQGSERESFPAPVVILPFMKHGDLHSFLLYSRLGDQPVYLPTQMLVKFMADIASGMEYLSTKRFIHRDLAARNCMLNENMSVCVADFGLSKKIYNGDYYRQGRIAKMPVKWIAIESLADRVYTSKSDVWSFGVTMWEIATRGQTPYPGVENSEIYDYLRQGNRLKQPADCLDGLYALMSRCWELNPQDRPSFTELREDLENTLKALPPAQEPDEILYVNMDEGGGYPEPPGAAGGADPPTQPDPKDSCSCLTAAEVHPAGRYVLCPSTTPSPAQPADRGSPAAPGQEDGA
Items are presented alongside their recorded IC50.

Query: Look up IC50: CC(C)N1CCC(=Cc2ccc(-c3cnc(Nc4ccc(F)cc4)nc3N[C@H]3CC[C@H](O)CC3)nc2)CC1 [UNC4397A]
Response: < 10 nM

Query: Look up IC50: O[C@H]1CC[C@H](Nc2nc(Nc3ccccc3)ncc2-c2ccccn2)CC1 [UNC3029A]
Response: 100 to 1000 nM

// moving on: another record for IC50
Query: Look up IC50: O[C@H]1CC[C@H](Nc2nc(Nc3ccccc3)ncc2-c2ccc(CN3CCCC3)cn2)CC1 [UNC4198A]
Response: < 10 nM

###

target: Mer (Homo sapiens, UniProt Q12866); test: Mer kinase inhibition IC50; type: biochemical; conditions: Table 4; read-out: Mer IC50
Sequence (Q12866 21-999): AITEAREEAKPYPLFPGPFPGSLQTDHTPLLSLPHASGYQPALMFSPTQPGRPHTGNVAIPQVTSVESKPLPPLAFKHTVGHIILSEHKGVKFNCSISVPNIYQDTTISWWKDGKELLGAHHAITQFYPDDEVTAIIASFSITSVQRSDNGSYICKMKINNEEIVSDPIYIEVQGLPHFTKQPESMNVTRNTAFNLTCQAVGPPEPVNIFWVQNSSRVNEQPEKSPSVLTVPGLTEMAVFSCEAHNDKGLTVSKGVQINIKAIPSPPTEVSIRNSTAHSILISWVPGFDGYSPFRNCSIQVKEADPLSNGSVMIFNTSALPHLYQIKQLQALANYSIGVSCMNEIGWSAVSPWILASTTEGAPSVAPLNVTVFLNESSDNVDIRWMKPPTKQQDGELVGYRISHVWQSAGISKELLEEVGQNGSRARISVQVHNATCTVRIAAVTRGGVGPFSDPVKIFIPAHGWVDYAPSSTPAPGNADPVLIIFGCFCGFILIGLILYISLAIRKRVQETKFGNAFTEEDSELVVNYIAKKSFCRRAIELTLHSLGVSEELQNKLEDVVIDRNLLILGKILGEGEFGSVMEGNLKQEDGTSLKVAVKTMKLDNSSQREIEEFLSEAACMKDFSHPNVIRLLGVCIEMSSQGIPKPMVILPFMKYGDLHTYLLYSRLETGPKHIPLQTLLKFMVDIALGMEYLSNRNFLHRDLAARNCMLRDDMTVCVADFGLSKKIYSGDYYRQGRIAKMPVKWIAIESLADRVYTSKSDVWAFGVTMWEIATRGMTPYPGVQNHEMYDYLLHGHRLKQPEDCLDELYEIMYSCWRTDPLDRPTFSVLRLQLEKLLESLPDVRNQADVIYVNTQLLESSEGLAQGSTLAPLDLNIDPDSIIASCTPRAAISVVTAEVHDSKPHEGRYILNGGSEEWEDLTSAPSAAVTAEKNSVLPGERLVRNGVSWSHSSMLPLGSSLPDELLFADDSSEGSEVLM
Items are presented alongside their recorded IC50.

Example results:
Query: Please state recorded IC50 (tested on Mer (Homo sapiens, UniProt Q12866)) of O[C@H]1CC[C@H](Nc2nc(Nc3ccc(C#Cc4cc(-c5ccn[nH]5)ccn4)cc3)ncc2-c2ccccn2)CC1 [UNC4360A]
Response: 100 to 1000 nM

Query: Please state recorded IC50 (tested on Mer (Homo sapiens, UniProt Q12866)) of O[C@H]1CC[C@H](Nc2nc(Nc3ccc(C#Cc4cc(-c5cncnc5)ccn4)cc3)ncc2-c2ccccn2)CC1 [UNC4362A]
Response: 10 to 100 nM

Query: Please state recorded IC50 (tested on Mer (Homo sapiens, UniProt Q12866)) of CC(C)Nc1ccnc(C#Cc2ccc(Nc3ncc(-c4ccccn4)c(N[C@H]4CC[C@H](O)CC4)n3)cc2)c1 [UNC4364A]
Response: 10 to 100 nM

Query: Please state recorded IC50 (tested on Mer (Homo sapiens, UniProt Q12866)) of O[C@H]1CC[C@H](Nc2nc(Nc3ccc(C#Cc4cc(-c5ncc[nH]5)ccn4)cc3)ncc2-c2ccccn2)CC1 [UNC4357A]
Response: 100 to 1000 nM

Query: Please state recorded IC50 (tested on Mer (Homo sapiens, UniProt Q12866)) of O[C@H]1CC[C@H](Nc2nc(Nc3ccc(C#Cc4cc(Nc5ncco5)ccn4)cc3)ncc2-c2ccccn2)CC1 [UNC4392A]
Response: 100 to 1000 nM

Others:
Query: Please state recorded IC50 (tested on Mer (Homo sapiens, UniProt Q12866)) of O[C@H]1CC[C@H](Nc2nc(Nc3ccc(C#Cc4cc(-c5cccnc5)ccn4)cc3)ncc2-c2ccccn2)CC1 [UNC4361A]
Response: 100 to 1000 nM

Query: Please state recorded IC50 (tested on Mer (Homo sapiens, UniProt Q12866)) of O[C@H]1CC[C@H](Nc2nc(Nc3ccc(C#Cc4cc(-c5ccncc5)ccn4)cc3)ncc2-c2ccccn2)CC1 [UNC4363A]
Response: 10 to 100 nM

###

biological target: FLT3 (Homo sapiens, UniProt P36888); experiment: FLT3 kinase inhibition IC50; assay type: biochemical; details: Example 6
Sequence (P36888 27-993): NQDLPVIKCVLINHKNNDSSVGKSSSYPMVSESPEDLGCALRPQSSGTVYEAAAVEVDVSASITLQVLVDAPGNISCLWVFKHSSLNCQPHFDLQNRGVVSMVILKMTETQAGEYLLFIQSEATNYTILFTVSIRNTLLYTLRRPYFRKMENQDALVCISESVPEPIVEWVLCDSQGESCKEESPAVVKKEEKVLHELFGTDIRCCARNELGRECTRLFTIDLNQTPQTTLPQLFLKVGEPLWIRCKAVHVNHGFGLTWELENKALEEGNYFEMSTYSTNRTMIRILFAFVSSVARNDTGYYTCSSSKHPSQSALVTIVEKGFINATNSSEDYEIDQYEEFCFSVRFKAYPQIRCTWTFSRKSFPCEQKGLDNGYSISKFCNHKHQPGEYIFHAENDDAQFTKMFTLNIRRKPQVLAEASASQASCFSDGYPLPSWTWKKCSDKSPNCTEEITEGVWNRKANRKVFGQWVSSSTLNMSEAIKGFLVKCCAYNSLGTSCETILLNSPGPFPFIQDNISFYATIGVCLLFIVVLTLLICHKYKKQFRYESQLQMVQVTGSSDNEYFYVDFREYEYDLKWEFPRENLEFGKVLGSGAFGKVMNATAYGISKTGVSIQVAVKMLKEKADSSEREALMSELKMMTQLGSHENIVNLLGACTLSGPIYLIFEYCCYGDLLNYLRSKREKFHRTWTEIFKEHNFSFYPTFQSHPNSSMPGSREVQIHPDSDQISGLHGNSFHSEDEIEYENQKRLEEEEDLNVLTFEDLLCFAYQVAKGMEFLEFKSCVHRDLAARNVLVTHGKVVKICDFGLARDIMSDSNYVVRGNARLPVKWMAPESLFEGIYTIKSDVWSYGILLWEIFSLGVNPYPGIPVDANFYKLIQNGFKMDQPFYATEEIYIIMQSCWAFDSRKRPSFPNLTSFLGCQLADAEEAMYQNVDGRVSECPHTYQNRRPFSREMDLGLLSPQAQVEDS
Items are presented alongside their recorded IC50.
# include the unit after the value

Query: Look up IC50: CCCCN(C)c1ncc2c(-c3ccc(F)cc3)nn(C[C@H]3CC[C@H](N)CC3)c2n1 [UNC1653, reference compound]
Response: 220 nM

Others:
Query: Look up IC50: O[C@H]1CC[C@H](Nc2nc(Nc3ccccc3)ncc2-c2ccc(CN3CCCC3)cn2)CC1 [UNC4198A]
Response: 0.76 nM

###

molecular target: Mer (Homo sapiens, UniProt Q12866); assay: Mer kinase inhibition IC50; type: biochemical; settings: Table 3; read-out: Mer IC50
Observation Type: IC50

Example results:
Query: Please state recorded IC50 (tested on Mer (Homo sapiens, UniProt Q12866)) of CC(C)C(=O)Nc1ccnc(C#Cc2ccc(Nc3ncc(-c4ccc(CN5CCN(C)CC5)cc4)c(N[C@H]4CC[C@H](O)CC4)n3)cc2)c1 [UNC3870A]
Response: < 10 nM

Query: Please state recorded IC50 (tested on Mer (Homo sapiens, UniProt Q12866)) of Cc1cc(C#Cc2cc(NC(=O)C(C)C)ccn2)ccc1Nc1ncc(-c2ccc(CN3CCN(C)CC3)cc2)c(N[C@H]2CC[C@H](O)CC2)n1 [UNC4048A]
Response: 10 to 100 nM

// moving on: another record for IC50
Query: Please state recorded IC50 (tested on Mer (Homo sapiens, UniProt Q12866)) of CC(C)C(=O)Nc1ccnc(C#Cc2ccc(Nc3ncc(-c4ccccc4)c(N[C@H]4CC[C@H](O)CC4)n3)cc2)c1 [UNC4041A]
Response: 10 to 100 nM

###

target: Mer (Homo sapiens, UniProt Q12866); experiment: Mer kinase inhibition IC50; format: biochemical; conditions: Table 3; read-out: Mer IC50
Items are presented alongside their recorded IC50.

Query: Look up IC50: CN1CCN(Cc2ccc(-c3cnc(Nc4ccc(C#Cc5cc(NC(=O)C6CCC6)ccn5)cc4)nc3N[C@H]3CC[C@H](O)CC3)cc2)CC1 [UNC3871A]
Response: < 10 nM

Others:
Query: Look up IC50: Cc1cc(Nc2ncc(-c3ccc(CN4CCN(C)CC4)cc3)c(N[C@H]3CC[C@H](O)CC3)n2)ccc1C#Cc1cc(NC(=O)C(C)C)ccn1 [UNC4044A]
Response: < 10 nM

Query: Look up IC50: CC(C)C(=O)Nc1ccnc(C#Cc2ccc(Nc3ncc(-c4ccc(CN5CCN(C)CC5)cc4)c(N[C@H]4CC[C@H](O)CC4)n3)c(F)c2)c1 [UNC4040A]
Response: < 10 nM

###

Items are presented alongside their recorded IC50.
biological target: UniProt P30530; test: Axl kinase inhibition IC50; format: biochemical; conditions: Table 2

Example results:
Query: Look up IC50: O[C@H]1CC[C@H](Nc2nc(Nc3ccc(C4=CCNCC4)cc3)ncc2-c2ccccn2)CC1 [UNC4402A]
Response: 1 to 30 µM

Query: Look up IC50: O[C@H]1CC[C@H](Nc2nc(Nc3ccc(C4=CCCN(C5CCC5)C4)cc3)ncc2-c2ccccn2)CC1 [UNC5070A]
Response: 1 to 30 µM

Query: Look up IC50: CN1CCC(N2CCC(c3ccc(Nc4ncc(-c5ccccn5)c(N[C@H]5CC[C@H](O)CC5)n4)cc3)CC2)CC1 [UNC5072A]
Response: 0.1 to 1 µM

Query: Look up IC50: CC[C@H](N)C(=O)N1CC=C(c2ccc(Nc3ncc(-c4ccccn4)c(N[C@H]4CC[C@H](O)CC4)n3)cc2)CC1 [UNC4403A]
Response: 1 to 30 µM

Query: Look up IC50: CN1CCC(c2ccc(Nc3ncc(-c4ccccn4)c(N[C@H]4CC[C@H](O)CC4)n3)cc2)CC1 [UNC5130A]
Response: 0.1 to 1 µM

Others:
Query: Look up IC50: CC(C)Nc1nc(Nc2ccc(C3CCN(C)CC3)cc2)ncc1-c1ccccn1 [UNC5135A]
Response: 0.1 to 1 µM

Query: Look up IC50: CN1CCC(N2CC=C(c3ccc(Nc4ncc(-c5ccccn5)c(N[C@H]5CC[C@H](O)CC5)n4)cc3)CC2)CC1 [UNC5052A]
Response: 0.1 to 1 µM

Query: Look up IC50: O[C@H]1CC[C@H](Nc2nc(Nc3ccc(-c4cccnc4)cc3)ncc2-c2ccccn2)CC1 [UNC4435A]
Response: 1 to 30 µM

Query: Look up IC50: CNc1nc(Nc2ccc(C3CCN(C)CC3)cc2)ncc1-c1ccccn1 [UNC5136A]
Response: 1 to 30 µM

###

Molecular target: Tyro3 (Homo sapiens, UniProt Q06418)
Sequence (Q06418 41-890): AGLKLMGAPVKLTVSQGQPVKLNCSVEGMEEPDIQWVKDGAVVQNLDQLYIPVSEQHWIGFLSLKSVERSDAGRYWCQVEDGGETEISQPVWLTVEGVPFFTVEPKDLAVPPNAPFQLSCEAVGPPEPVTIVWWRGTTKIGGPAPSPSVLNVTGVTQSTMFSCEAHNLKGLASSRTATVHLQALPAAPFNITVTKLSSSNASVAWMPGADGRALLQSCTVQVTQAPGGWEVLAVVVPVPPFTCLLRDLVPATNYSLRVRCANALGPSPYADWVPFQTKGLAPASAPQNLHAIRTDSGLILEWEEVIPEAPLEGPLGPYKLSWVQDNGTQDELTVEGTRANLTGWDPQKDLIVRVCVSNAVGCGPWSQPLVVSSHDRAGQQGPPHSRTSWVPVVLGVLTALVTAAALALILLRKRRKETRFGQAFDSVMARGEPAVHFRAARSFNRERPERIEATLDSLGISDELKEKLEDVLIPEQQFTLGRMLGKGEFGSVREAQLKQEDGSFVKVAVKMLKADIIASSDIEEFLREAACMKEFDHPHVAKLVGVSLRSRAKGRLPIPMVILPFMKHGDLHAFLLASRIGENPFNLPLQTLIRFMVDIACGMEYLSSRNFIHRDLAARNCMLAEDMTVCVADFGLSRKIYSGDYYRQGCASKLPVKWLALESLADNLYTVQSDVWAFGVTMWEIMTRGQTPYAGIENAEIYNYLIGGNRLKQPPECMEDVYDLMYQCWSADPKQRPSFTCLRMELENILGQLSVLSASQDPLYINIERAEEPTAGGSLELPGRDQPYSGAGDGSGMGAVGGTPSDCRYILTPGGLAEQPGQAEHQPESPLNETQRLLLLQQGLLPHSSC
Assay: Tyro3 kinase inhibition IC50
Assay type: biochemical
Conditions: Table 5; read-out: Tryo3 IC50
Observation Type: IC50

Query: Look up IC50: CC(C)Oc1ccnc(C#Cc2ccc(Nc3ncc(-c4ccccn4)c(N[C@H]4CC[C@H](O)CC4)n3)cc2)c1 [UNC4394A]
Response: 100 to 1000 nM

Others:
Query: Look up IC50: COc1cccc(Oc2ccnc(C#Cc3ccc(Nc4ncc(-c5ccccn5)c(N[C@H]5CC[C@H](O)CC5)n4)cc3)c2)c1 [UNC4393A]
Response: 1000 to 30000 nM
